Tested on: EFA 29212 (Enterococcus faecalis (ATCC29212))
MEASUREMENT_NOTES: Microtitre plate assay, IC90 determination
Type: cell-based
REPORTED_CONDITIONS: Enterococcus faecalis (ATCC29212)
ENDPOINT_LABEL: IC90 (μg/ml) EFA 29212
The answer consists of two parts: a number and, after it, its unit.

Here is how some compounds turned out for IC90 (μg/ml) EFA 29212.
{"columns": ["COMPOUND", "MEASURED_VALUE"],
 "data": [
  ["COc1nc2ccc(Br)cc2cc1C(c1ccccc1)C(O)(CCCCN1CCCCC1)CCC(C)C (single isomer, unassigned) [Compound 124]", "9 µg/mL"],
  ["COc1nc2ccc(-c3ccccc3)cc2cc1C(c1ccccc1)C(O)(CCCCN(C)C)c1ccc2ccccc2c1 (stereo not drawn) [Compound 41]", "9.2 µg/mL"]
]}

Next up:
Which IC90 (μg/ml) EFA 29212 is listed for COc1nc2ccc(Br)cc2cc1C(c1ccccc1)C(O)(CCCCN(C)C)CCCc1ccccc1 (single isomer, unassigned) [Compound 145] ?
9.12 µg/mL

----------
Test system: EFA 29212 (Enterococcus faecalis (ATCC29212))
MEASUREMENT_NOTES: Microtitre plate assay, IC90 determination
Assay type: cell-based
REPORTED_CONDITIONS: Enterococcus faecalis (ATCC29212)
hey, just use rule met if measured IC90 (μg/ml) EFA 29212 is less than 4 µg/mL, otherwise rule not met

Reference set (3 entries):
{"columns": ["MOLECULE", "CLASS_ASSIGNMENT"],
 "data": [
  ["COc1nc2ccc(Br)cc2cc1C(c1ccccc1)C(O)(CCCCN1CCN(C)CC1)CCc1ccc(C)cc1 (single isomer, unassigned)", "rule not met"],
  ["COc1nc2ccc(Br)cc2cc1C(c1ccccc1)C(O)(CCCCN(C)C(C)C)c1ccccc1 (single isomer, unassigned)", "rule not met"],
  ["COc1nc2ccc(Br)cc2cc1C(c1ccccc1)C(O)(CCCCN(C)C)c1ccc2ccccc2c1 (stereo not shown) [Compound 18]", "rule not met"]
]}

# check: IC90 (μg/ml) EFA 29212 < 4 µg/mL for COc1nc2ccc(Br)cc2cc1C(c1ccccc1)C(O)(CCCCN(C)C)c1ccc2ccccc2c1 (stereo not shown) [Compound 24]
rule met

# check: IC90 (μg/ml) EFA 29212 < 4 µg/mL for CCN(CC)CCCC(O)(c1ccc2ccccc2c1)C(c1ccccc1)c1cc2cc(Br)ccc2nc1OC (stereo not shown)
rule not met

# check: IC90 (μg/ml) EFA 29212 < 4 µg/mL for COc1nc2ccc(Br)cc2cc1C(c1ccc(Cl)cc1)C(O)(CCCCN1CCCCC1)c1ccccc1 (single isomer, unassigned)
rule not met
